test system: NCI-H23 lung; assay: NCI-60 one-dose screen, 48 h (100 = growth as untreated, 0 = no growth, -100 = all killed); details: 10 µM unless noted
This is part of a sample that, as a whole, favours compounds with a hit. Of some 83,000 tested, about 20% had one in any assay.
Lab note: anything with growth at or over 70% counts as Met; the rest go in Not met.

{"columns": ["Molecule", "Target", "Label Class"],
 "data": [
  ["N#C/C(=C\\c1ccc2c(c1)OCO2)n1nnc2ccccc21", "NCI-H23 lung", "Not met"],
  ["COc1cc(C(=O)Nc2cc(O)c(CC=C(C)C)c(O)c2)cc2c1O[C@]1(C)CC[C@@H](O)C(C)(C)[C@H]1C2", "NCI-H23 lung", "Not met"],
  ["Cc1ccc(O)c(C(=O)c2ccccc2Cl)c1", "NCI-H23 lung", "Met"],
  ["C=CCOc1cccc(/C=C2\\SC(=Nc3ccc(O)cc3)NC2=O)c1", "NCI-H23 lung", "Not met"],
  ["CCOC(=O)c1c(C)nc2c(c1N)/C(=C/c1ccc(OC)cc1)C(=O)N2Cc1ccc(F)cc1", "NCI-H23 lung", "Not met"],
  ["CN(C)CCCCNc1ccc(NCCCCN(C)C)c2c1C(=O)c1c(O)ccc(O)c1C2=O", "NCI-H23 lung", "Not met"],
  ["Nc1nc(N)c(-c2ccc(Cl)cc2)c(/C=C/c2ccc([N+](=O)[O-])cc2)n1", "NCI-H23 lung", "Met"],
  ["O=c1cc(-c2ccc(OCc3ccccc3)cc2)oc2c(I)c(OCc3ccccc3)cc(OCc3ccccc3)c12", "NCI-H23 lung", "Met"],
  ["COc1cc(-c2ccc(N=Nc3c(O)c(C(=O)Nc4ccccc4OC)cc4ccccc34)c(OC)c2)ccc1N=Nc1c(O)c(C(=O)Nc2ccccc2OC)cc2ccccc12", "NCI-H23 lung", "Met"],
  ["Cc1cc(C)on1", "NCI-H23 lung", "Met"],
  ["CO/C(=C1/NC(=O)C(Cc2ccc(O)c(Br)c2)N(C)C(=O)C(C)NC(=O)CCC/C=C(\\C)CCC(C)OC1=O)c1ccccc1 (centres undefined)", "NCI-H23 lung", "Not met"],
  ["O=C(/C=C/C12c3ccccc3C(c3ccccc31)C1C(=O)NC(=O)C12)c1ccc(Cl)cc1 (centres undefined)", "NCI-H23 lung", "Not met"],
  ["C=C(C)C1CCC(=C)C2CCC3(C)OC12/C=C(/COC(C)=O)CCC3O (centres undefined)", "NCI-H23 lung", "Met"],
  ["COc1cc(/C=C2\\C=C(c3ccccc3)N(CCc3ccccc3)C2=O)cc(OC)c1OC", "NCI-H23 lung", "Met"],
  ["NC(N)=N/N=C(/c1ccccc1)c1ccc(N)cc1", "NCI-H23 lung", "Met"],
  ["CCNCCNc1cc(-c2ccc(C#N)cc2)c(C#N)c2nc3ccccc3n12", "NCI-H23 lung", "Not met"],
  ["NC(=O)CC1(O)C=C(Br)C(=O)C(Br)=C1", "NCI-H23 lung", "Not met"],
  ["COc1ccc(NC(=O)c2cccc(-c3cc(=O)c4c(O)c(OC)c(OC)cc4o3)c2)cc1", "NCI-H23 lung", "Met"],
  ["COc1ccc(-c2cncnc2N)cc1OC", "NCI-H23 lung", "Met"]
]}
